Listed molecules paired with reported EC50
# experimental system: human 5-HT2C receptor (Homo sapiens)
# Sequence (P28335 33-458): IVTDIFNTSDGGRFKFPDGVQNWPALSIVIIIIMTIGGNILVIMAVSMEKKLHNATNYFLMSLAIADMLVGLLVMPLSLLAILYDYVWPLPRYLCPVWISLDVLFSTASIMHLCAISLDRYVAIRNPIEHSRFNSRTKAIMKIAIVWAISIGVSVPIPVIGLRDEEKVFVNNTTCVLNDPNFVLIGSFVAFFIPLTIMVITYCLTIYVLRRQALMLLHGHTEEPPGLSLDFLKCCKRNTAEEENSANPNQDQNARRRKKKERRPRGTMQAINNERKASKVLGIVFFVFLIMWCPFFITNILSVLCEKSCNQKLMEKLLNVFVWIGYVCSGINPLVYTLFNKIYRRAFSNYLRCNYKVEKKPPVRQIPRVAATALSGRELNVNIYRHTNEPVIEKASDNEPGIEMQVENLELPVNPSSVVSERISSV
# experimental protocol: 5-HT2C receptor-stimulated calcium mobilization (FLIPR) in CHO cells
# Format: cell-based

| molecule | EC50 |
| --- | --- |
| Fc1ccc2c3c1c1c(n3CCNCC2)CCCC1 [Example 29] | 8 nM |
| Fc1ccc2c3c1C1CCCCC1N3CCNCC2 (stereo not drawn) [Example 31] | 87 nM |
| c1cc2c3c(c1)c1c(n3CCNCC2)CCCC1 [Example 6] | 6 nM |
| Fc1ccc2c3c1c1c(n3CCNCC2)CCC1 [Example 28] | 36 nM |
| CN1CCc2cccc3c2N(CC1)C1CCCCC31 (stereo not drawn) [Example 7] | 74 nM |
| CN1CCc2cccc3c4c(n(c23)CC1)CCC4 [Example 1] | 48 nM |
